Below, each entry is listed with its recorded growth.
Test system: HS 578T breast
assay overview: NCI-60 one-dose screen, 48 h (100 = growth as untreated, 0 = no growth, -100 = all killed)
assay conditions: 10 µM unless noted
The panel holds about 83,000 compounds, 20% with a hit somewhere; the sample as a whole holds those more often.
Please give a number only; it is taken to be in %.

Here are 7 molecules together with their reported answers.
molecule | tgt | growth (%)
COc1ccc(C(c2cc(OC)c(OC)c(OC)c2)N2CCN(c3ccccc3)CC2)cc1 (stereo not drawn) | HS 578T breast | 101
CCOP(=O)(OCC)c1nc(-c2ccccc2)oc1NCc1cccnc1 | HS 578T breast | 109
CCCCCCCCCCCCCCCCCCOc1ccccc1CC(=O)OCC[N+]1(C)CCCC1 | HS 578T breast | 30.3
COC1C[C@H](O[C@@H]2C[C@H](O[C@@H]3C[C@H](O[C@@H]4C(=O)c5c(cc6cc(O[C@H]7C[C@@H](O[C@H]8C[C@@H](O)[C@H](O)C(C)O8)[C@H](O)C(C)O7)c(C)c(O)c6c5O)C[C@H]4C(OC)C(=O)[C@@H](O)[C@@H](C)O)OC(C)[C@H]3O)OC(C)[C@@H]2O)OC(C)[C@@H]1O (stereo partly drawn) | HS 578T breast | 7.26
O=S(=O)(Nc1ccccc1)c1ccc(C2CC3(Cl)C(Cl)=C(Cl)C2(Cl)C3(Cl)Cl)cc1 (stereo not drawn) | HS 578T breast | 54.8
C#CCn1cnc2c(Nc3cccc(NC(=O)C=C)c3)ncnc21 | HS 578T breast | 74.5
O=C1NCCC12CCN(c1c(Cl)cncc1-c1ccc(O)cc1)CC2 | HS 578T breast | 101

Q) Can you look up the measured growth of Cc1cc2c(O)c(-c3cccc(Cl)c3)c3sc(=O)oc3c2cc1C for me?
A) 48.2

---

Test system: SN12C renal
assay overview: NCI-60 one-dose screen, 48 h
assay conditions: 10 µM unless noted
This is part of a sample that, as a whole, favours compounds with a hit. Of some 83,000 tested, about 20% had one in any assay. The source made the active and inactive calls. Rule for the calls: active = growth percent below 10; inactive = the rest.
Reply using exactly one outcome from 1 = active, 0 = inactive

Use these answered entries as a reference point.
compound | label value
CN1C(=O)/C(=C/c2cn(-c3ccccc3)nc2-c2ccccc2)SC1=S | 0
CN1CCN(C(=O)c2ccc(NC(=O)Nc3ccc(-c4nc(N5CCOCC5)c5cccn5n4)cc3)cc2)CC1 | 1
COc1ccc(-c2csc(NC(=O)CSc3nc(-c4ccccc4)cc(=O)[nH]3)n2)cc1 | 0
CCOC(=O)c1ccc2[nH]c(O)c(C(=Nc3ccc(N(C)C(=O)CN4CCN(C)CC4)cc3)c3ccccc3)c2c1 | 0
CCN(CC)c1ccc(/C=C/C(=O)c2ccc(Nc3nc(Nc4ccccc4)nc(Nc4ccccc4)n3)cc2)cc1 | 0

Q) Field: outcome | Entry: CS(=O)(=O)Nc1cc(-c2ccc3ncnc(Nc4ccc5c(cnn5Cc5ccccn5)c4)c3c2)cnc1Cl
A) 0

Q) Now consider COc1cc(CNS(=O)(=O)c2ccc(C)cc2)ccc1OCc1cn(-c2ccc(F)cc2)nn1 and answer again.
A) 0

Q) Then what about the compound O=c1c2cc(-c3ccccc3)sc2nc2sc(-c3ccccc3)nn12 ?
A) 0

Q) Repeat for the following compound: COc1ccc(OC)c(C(=O)/C=C/c2cc3c(c(OC)c2OC)OCO3)c1
A) 0

---

Tested on: MDA-MB-231 breast
assay overview: NCI-60 one-dose screen, 48 h (100 = growth as untreated, 0 = no growth, -100 = all killed)
assay conditions: 10 µM unless noted
About 83,000 compounds went through this panel and 20% of them were active in at least one assay; those are over-represented in the sample as a whole.
growth values by entry
# unit: % | format: bare number

Known growth results, listed for orientation:
compound | measure unit | growth
COC(=O)c1c2c(c[n+]([O-])c1C)C(=O)C(NCc1ccccc1)=CC2=O | % | -3.95
CSc1nnc(-c2cnn3c2NC(c2ccccc2)C3)n1-c1ccc(C(F)(F)F)cc1 (stereo unspecified) | % | 64.8
COc1ccc2c(c1)[n+]([O-])c(C(=O)/C=C/C=C(\Cl)c1cc(OC)c(OC)c(OC)c1)c(C)[n+]2[O-] | % | 74.9
CCS/C(Nc1ccccc1)=C(\C#N)C(=O)N/N=C/c1ccc(Cl)cc1Cl | % | 39
C=CCc1c2c(c(OC)c3ccoc13)C(=O)/C(=C/c1ccccc1OC)O2 | % | 50.9
CCCCCCCCn1ccc2cc(NC(=O)CN3CCN(c4nc(C)cc(Cl)n4)CC3)ccc21 | % | 107
O=C(c1cc2ccccc2o1)c1nn(-c2ccccc2)/c(=N/N=Cc2cn(-c3ccccc3)nc2-c2cc3ccccc3oc2=O)s1 | % | 86.2
Cc1ccc(-n2c(=S)[nH]c3sc4c(c3c2=O)CCC(=O)C4)cc1 | % | 54.6

Q) Which growth value is on record for CCOC(=O)c1nc(Nc2ccc(NC(=O)Nc3ccc(F)cc3)cc2)c2ccccc2n1 ?
A) 95.9

Q) Then this compound: CCOc1nc(-c2ccccc2)cc2c(O)c(C(=O)NN)[nH]c(=O)c12
A) 99.3

Q) Moving on to the next compound: COc1cc2oc(-c3cccc(NC(=O)c4cccc(Br)c4)c3)cc(=O)c2c(OC)c1OC
A) 63.5

---

Form field: growth (one value per entry).
Test system: SK-MEL-5 melanoma
assay overview: NCI-60 one-dose screen, 48 h (100 = growth as untreated, 0 = no growth, -100 = all killed)
assay conditions: 10 µM unless noted
This is part of a sample that, as a whole, favours compounds with a hit. Of some 83,000 tested, about 20% had one in any assay.
Numbers only here, please. The scale is %.

# count of solved cases: 2
molecule | tgt | measure name | measure unit | measurement
CCOc1nc(-c2ccccc2)cc2c(O)c(C(=O)NN)[nH]c(=O)c12 | SK-MEL-5 melanoma | growth | % | 105
CCOC(=O)c1cc2c(=O)oc3ccccc3c2oc1=O | SK-MEL-5 melanoma | growth | % | 106

Q) Endpoint output: growth of CC1=C(C(=O)OC(C)C)C(c2ccc3c(c2)OCO3)NC(=S)N1 (stereo unspecified) . Value?
A) 98.5

Q) Entry COc1ccc(C2=Nc3c/c(=C\c4c(O)[nH]c5ccc(Cl)cc45)ccc3=N2)cc1 please
A) 34.7

Q) Input CC(C)n1cnc2c(=S)nc[nH]c21
A) 103

---

Test system: COLO 205 colon
assay overview: NCI-60 one-dose screen, 48 h
assay conditions: 10 µM unless noted
About 83,000 compounds went through this panel and 20% of them were active in at least one assay; those are over-represented in the sample as a whole. Active and inactive are the calls of the source. How the source made its calls: active means growth percent below 10; inactive means the rest.
Classes to choose from: 1 for active, 0 for inactive

compound | tgt | label value
COc1cc2c(c(OC)c1OC)CCC(c1cccc(C(=O)Nc3cccc(Br)c3)c1)O2 (centres undefined) | COLO 205 colon | 0

Q) Test call for this compound, please: CCCCCOc1ccc(C(=O)/C(Br)=C/C(=O)O)cc1
A) 0

Q) Also Cc1cc(Cl)ccc1Nc1nc(C(F)(F)F)ccc1C(=O)N/N=C/c1ccc([N+](=O)[O-])cc1 , if possible.
A) 1

---

Test system: RPMI-8226 leukemia
assay overview: NCI-60 one-dose screen, 48 h
assay conditions: 10 µM unless noted
Compounds without any hit were thinned out: in the full panel of roughly 83,000, 20% have a hit. Calls of active or inactive are those of the source. How the source made its calls: active means growth percent below 10; inactive means the rest.
Valid outcomes are listed here; reply with one: active, inactive

molecule | label value
Cn1cc(-c2nonc2-c2c[nH]c3ccc(Br)cc23)c2cc(Br)ccc21 | inactive

Q) Look up the recorded call for COc1ccc2[nH]cc(-c3nc(-c4cn(C)c5c(Cl)nccc45)cs3)c2c1 in this test.
A) inactive

Q) Again, but for COc1cccc(/C=C/C(=O)c2cc3c(N)c(C(=O)Nc4ccccc4)sc3nc2C)c1
A) active

Q) Also check N#CCSc1nnc2n(Cc3ccccc3)c(=O)c3c4c(sc3n12)CCCC4
A) active

Q) Can you check COc1ccc(NC(=O)c2sc3nc(C)c(C(=O)/C=C/c4cccc(OC)c4)cc3c2N)cc1 next?
A) active

Q) What about this molecule? Brc1ccc(-n2cc(-c3nn[nH]n3)c(-c3cccs3)n2)cc1
A) inactive

Q) How about this molecule: CC1(C)CC[C@]2(C(=O)O)CC[C@]3(C)C(=CC[C@@H]4[C@@]5(C)C/C(=C/O)C(=O)C(C)(C)[C@@H]5CC[C@]43C)[C@@H]2C1
A) inactive

Q) Same question, COc1ccc2cc(C(=O)c3coc4ccc(O)cc34)ccc2c1 this time
A) inactive

Q) Consider next the molecule COc1ccc(C(=S)N2CCN(c3ccccc3Cl)CC2)cc1OC in the same way.
A) inactive

Q) And CC(=O)N1N=C(c2ccc(Nc3nc(Nc4ccc(Cl)cc4)nc(Nc4ccc(Cl)cc4)n3)cc2)CC1c1ccco1 (stereo unspecified) ?
A) inactive

Q) Can you check C/C(=N/O)c1ccc(F)cc1 next?
A) inactive

Q) One more molecule: O=C1Nc2ccc(I)cc2C1=O
A) inactive

Q) // next record COc1ccc(C(=O)Nc2cccc(C3CC(=O)c4c(cc(OC)c(OC)c4OC)O3)c2)cc1 (stereo unspecified)
A) inactive

Q) Quick one: CCC(C)N(c1ccc(Cl)cc1)c1nc(-c2ccc(Br)cc2)cs1 (stereo unspecified)
A) inactive

Q) Queued: COc1ccc(-c2nc(SCC(C)C)nc(N/N=C\c3ccc(F)cc3)c2C#N)cc1
A) inactive

Q) # iterate: COc1ccc(OC)c(-c2c(C#N)c(-c3cccs3)nc3c2c(-c2ccccc2)nn3-c2ccccc2)c1
A) inactive

Q) Please give the result for CN1CCN(Cc2ccc3c(NNC(=O)c4ccccc4)nc4cc(F)ccc4n23)CC1 too.
A) inactive

Q) // query: CN1C(=O)/C(=C/c2cn(-c3ccccc3)nc2-c2ccccc2)SC1=S
A) inactive

Q) Now try O=c1c2cc(-c3ccccc3)sc2nc2sc(-c3ccccc3)nn12 .
A) inactive

Q) Input CC(C)(C)c1cc(-c2nc3ccc(N4CCN(S(C)(=O)=O)CC4)cc3[nH]2)cc(C(C)(C)C)c1O
A) inactive

Q) Next record, please: Oc1ccc(CN2CCC(N3CCCCC3)CC2)c2cccnc12
A) inactive
